Biological target: Alpha-1D adrenergic receptor (Homo sapiens)
Sequence (P25100 whole entry): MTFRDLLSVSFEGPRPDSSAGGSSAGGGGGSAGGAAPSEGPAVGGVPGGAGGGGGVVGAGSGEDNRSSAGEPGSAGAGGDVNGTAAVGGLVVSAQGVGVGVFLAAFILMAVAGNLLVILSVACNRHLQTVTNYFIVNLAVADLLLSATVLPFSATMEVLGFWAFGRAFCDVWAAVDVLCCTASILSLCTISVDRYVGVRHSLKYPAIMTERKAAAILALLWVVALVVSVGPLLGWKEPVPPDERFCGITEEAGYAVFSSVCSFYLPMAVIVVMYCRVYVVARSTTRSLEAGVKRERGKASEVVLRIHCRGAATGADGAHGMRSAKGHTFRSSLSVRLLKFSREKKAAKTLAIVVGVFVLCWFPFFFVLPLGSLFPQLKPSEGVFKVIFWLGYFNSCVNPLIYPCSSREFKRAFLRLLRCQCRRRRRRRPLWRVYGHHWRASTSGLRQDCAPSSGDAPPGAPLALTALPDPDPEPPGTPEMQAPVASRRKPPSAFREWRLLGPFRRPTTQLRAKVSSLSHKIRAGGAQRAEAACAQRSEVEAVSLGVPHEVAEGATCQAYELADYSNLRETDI
recorded.metric: pKi
One number for each entry, as −log10 of the molar value.

Reported pKi ( CN1CCc2cc3c(c4c2[C@H]1Cc1ccccc1-4)OCO3 ) = 6.20

---

Biological target: 5-hydroxytryptamine receptor 2A (Homo sapiens) (UniProt P28223)
Assay: Antagonist activity at human 5-HT2A receptor expressed in HEK293 cells assessed as inhibition of serotonin-induced receptor activation preincubated for 15 mins followed by serotonin addition and measured after 1 hr by TGFalpha shedding assay
Assay type: functional, cell-based
What pKb was measured for each of the following?

COc1cc2c3c(c1OC)-c1ccccc1C[C@H]3N(C)CC2 :: 7.18 to 7.26
CN1CCc2cc3c(c4c2[C@H]1Cc1ccccc1-4)OCO3 :: 7.88 to 7.97
CN1CCc2cc3c(c4c2[C@@H]1Cc1ccccc1-4)OCO3 :: 7.06 to 7.37

Now, please, on to the next compound.
// pKb value for COc1cc2c3c(c1OC)-c1ccccc1C[C@@H]3N(C)CC2 : 6.85 to 7.07

---

Exercise: state measured Selectivity ratio for each of the compounds provided.
Molecular target: Serotonin 2 receptors; 5-HT2a & 5-HT2c (Homo sapiens) (UniProt P28223+P28335)
Sequence (P28223 whole entry, looked up): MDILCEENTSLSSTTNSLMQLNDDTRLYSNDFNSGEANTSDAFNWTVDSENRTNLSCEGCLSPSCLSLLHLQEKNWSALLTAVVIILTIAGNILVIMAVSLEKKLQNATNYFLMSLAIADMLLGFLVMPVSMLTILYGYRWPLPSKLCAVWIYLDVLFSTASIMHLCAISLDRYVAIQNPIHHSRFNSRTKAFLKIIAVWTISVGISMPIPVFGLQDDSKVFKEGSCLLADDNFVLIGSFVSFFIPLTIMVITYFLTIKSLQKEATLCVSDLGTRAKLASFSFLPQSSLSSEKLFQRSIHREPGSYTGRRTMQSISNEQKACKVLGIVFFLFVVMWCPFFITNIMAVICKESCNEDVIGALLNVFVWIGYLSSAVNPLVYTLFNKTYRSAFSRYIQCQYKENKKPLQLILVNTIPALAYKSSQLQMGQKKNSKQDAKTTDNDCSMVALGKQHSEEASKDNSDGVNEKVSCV
Sequence (P28335 whole entry, looked up): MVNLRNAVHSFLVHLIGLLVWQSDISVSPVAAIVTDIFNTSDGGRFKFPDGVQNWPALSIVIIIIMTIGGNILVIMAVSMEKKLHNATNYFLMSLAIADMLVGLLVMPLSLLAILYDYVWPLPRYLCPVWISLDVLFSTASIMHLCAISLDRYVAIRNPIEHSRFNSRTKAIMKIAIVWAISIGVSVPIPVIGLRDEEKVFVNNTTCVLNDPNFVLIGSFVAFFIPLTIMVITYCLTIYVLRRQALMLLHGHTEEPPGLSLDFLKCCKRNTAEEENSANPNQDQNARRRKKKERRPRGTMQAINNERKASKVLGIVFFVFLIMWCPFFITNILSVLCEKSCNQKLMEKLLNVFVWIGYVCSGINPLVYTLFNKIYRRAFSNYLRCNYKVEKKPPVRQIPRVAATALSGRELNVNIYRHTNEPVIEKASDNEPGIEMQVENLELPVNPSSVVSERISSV
Test: Selectivity ratio of Kb for human 5-HT2C receptor to Kb for human 5-HT2A receptor
Numbers only.

Fill in Selectivity ratio for each of the 4 compounds listed.
1. COc1cc2c3c(c1OC)-c1ccccc1C[C@@H]3N(C)CC2
2. CN1CCc2cc3c(c4c2[C@@H]1Cc1ccccc1-4)OCO3
3. CN1CCc2cc3c(c4c2[C@H]1Cc1ccccc1-4)OCO3
4. COc1cc2c3c(c1OC)-c1ccccc1C[C@H]3N(C)CC2

1: 0.4; 2: 2; 3: 1; 4: 0.6

---

Exercise: state measured Kb for each of the molecules provided.
Target: Alpha-1B adrenergic receptor (Homo sapiens)
Assay: Antagonist activity at human adrenergic alpha1B receptor expressed in HEK293 cells assessed as inhibition of noradrenaline-induced receptor activation preincubated for 15 mins followed by noradrenaline addition and measured after 1 hr by TGFalpha shedding assay

Example entries begin here.
CN1CCc2cc3c(c4c2[C@@H]1Cc1ccccc1-4)OCO3 :: 154 nM
CN1CCc2cc3c(c4c2[C@H]1Cc1ccccc1-4)OCO3 :: 266 nM
COc1cc2c3c(c1OC)-c1ccccc1C[C@H]3N(C)CC2 :: 60.6 nM

Now for a further molecule.
get_value(item= COc1cc2c3c(c1OC)-c1ccccc1C[C@@H]3N(C)CC2 , readout=Kb) returns 316 nM

---

Molecular target: 5-hydroxytryptamine receptor 2C (Homo sapiens)
Test: Antagonist activity at human 5-HT2C receptor expressed in HEK293 cells assessed as inhibition of serotonin-induced receptor activation preincubated for 15 mins followed by serotonin addition and measured after 1 hr by TGFalpha shedding assay
Format: functional, cell-based
recorded.metric: pKb
Numbers only.

Below, each entry is followed by its recorded pKb result.
CN1CCc2cc3c(c4c2[C@H]1Cc1ccccc1-4)OCO3 :: 7.82
COc1cc2c3c(c1OC)-c1ccccc1C[C@@H]3N(C)CC2 :: 7.51
COc1cc2c3c(c1OC)-c1ccccc1C[C@H]3N(C)CC2 :: 7.44

Proceed to the following item.
pKb for CN1CCc2cc3c(c4c2[C@@H]1Cc1ccccc1-4)OCO3 is 7.12

---

Organism: Homo sapiens
Assay: Selectivity ratio of Kb for human adrenergic alpha1D receptor to Kb for human adrenergic alpha1A receptor
Record form. Attribute: Selectivity ratio. Fill in for each entry.
Give bare numbers.

Here are 3 compounds together with their reported answers.
CN1CCc2cc3c(c4c2[C@H]1Cc1ccccc1-4)OCO3 :: 0.1
COc1cc2c3c(c1OC)-c1ccccc1C[C@H]3N(C)CC2 :: 4
CN1CCc2cc3c(c4c2[C@@H]1Cc1ccccc1-4)OCO3 :: 1

// below: Selectivity ratio requested for another compound
For record COc1cc2c3c(c1OC)-c1ccccc1C[C@@H]3N(C)CC2 the listed Selectivity ratio is 2

---

Target: 5-hydroxytryptamine receptor 2B (Homo sapiens) (UniProt P41595)
Sequence (P41595 whole entry): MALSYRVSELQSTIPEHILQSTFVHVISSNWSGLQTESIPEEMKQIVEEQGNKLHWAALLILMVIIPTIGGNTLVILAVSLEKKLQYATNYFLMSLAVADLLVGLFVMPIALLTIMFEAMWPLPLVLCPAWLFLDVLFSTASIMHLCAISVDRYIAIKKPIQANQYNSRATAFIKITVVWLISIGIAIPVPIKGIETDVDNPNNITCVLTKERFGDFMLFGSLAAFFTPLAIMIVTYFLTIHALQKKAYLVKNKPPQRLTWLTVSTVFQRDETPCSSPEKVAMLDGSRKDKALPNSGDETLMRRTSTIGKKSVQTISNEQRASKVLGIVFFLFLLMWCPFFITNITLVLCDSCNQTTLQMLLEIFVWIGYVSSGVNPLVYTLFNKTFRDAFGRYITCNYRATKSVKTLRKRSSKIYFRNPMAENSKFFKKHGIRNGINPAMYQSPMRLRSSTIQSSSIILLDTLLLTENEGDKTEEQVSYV
Assay: Antagonist activity at human 5-HT2B receptor expressed in HEK293 cells assessed as inhibition of serotonin-induced receptor activation preincubated for 15 mins followed by serotonin addition and measured after 1 hr by TGFalpha shedding assay
Format: functional, cell-based
recorded.metric: Kb (nM)
Numbers only, in nM.

Okay, here is my list. What is Kb for each of these?
1. CN1CCc2cc3c(c4c2[C@@H]1Cc1ccccc1-4)OCO3
2. COc1cc2c3c(c1OC)-c1ccccc1C[C@@H]3N(C)CC2

1: 92.7; 2: 41.7

Please state Kb for every molecule in the list that follows.
1. COc1cc2c3c(c1OC)-c1ccccc1C[C@H]3N(C)CC2
2. CN1CCc2cc3c(c4c2[C@H]1Cc1ccccc1-4)OCO3

31
84

---

Kindly supply the reported Kb values for the records listed here.
Target: 5-hydroxytryptamine receptor 2C (Homo sapiens) (UniProt P28335)
Assay: Antagonist activity at human 5-HT2C receptor expressed in HEK293 cells assessed as inhibition of serotonin-induced receptor activation preincubated for 15 mins followed by serotonin addition and measured after 1 hr by TGFalpha shedding assay
Assay type: functional, cell-based
One number for each entry, in nM.

Known results for molecules:
CN1CCc2cc3c(c4c2[C@@H]1Cc1ccccc1-4)OCO3 :: 76.9
COc1cc2c3c(c1OC)-c1ccccc1C[C@@H]3N(C)CC2 :: 30.9
CN1CCc2cc3c(c4c2[C@H]1Cc1ccccc1-4)OCO3 :: 15.1

I looked up COc1cc2c3c(c1OC)-c1ccccc1C[C@H]3N(C)CC2 and its Kb for 5-hydroxytryptamine receptor 2C (Homo sapiens) (UniProt P28335) was 36.4

---

Molecular target: Alpha-1A adrenergic receptor (Homo sapiens)
recorded.metric: pKi
Numbers only, as −log10 of the molar value.

Noted for CN1CCc2cc3c(c4c2[C@H]1Cc1ccccc1-4)OCO3 : its pKi reads 6.60

---

Target: Alpha-1A adrenergic receptor (Homo sapiens) (UniProt P35348)
Sequence (P35348 whole entry): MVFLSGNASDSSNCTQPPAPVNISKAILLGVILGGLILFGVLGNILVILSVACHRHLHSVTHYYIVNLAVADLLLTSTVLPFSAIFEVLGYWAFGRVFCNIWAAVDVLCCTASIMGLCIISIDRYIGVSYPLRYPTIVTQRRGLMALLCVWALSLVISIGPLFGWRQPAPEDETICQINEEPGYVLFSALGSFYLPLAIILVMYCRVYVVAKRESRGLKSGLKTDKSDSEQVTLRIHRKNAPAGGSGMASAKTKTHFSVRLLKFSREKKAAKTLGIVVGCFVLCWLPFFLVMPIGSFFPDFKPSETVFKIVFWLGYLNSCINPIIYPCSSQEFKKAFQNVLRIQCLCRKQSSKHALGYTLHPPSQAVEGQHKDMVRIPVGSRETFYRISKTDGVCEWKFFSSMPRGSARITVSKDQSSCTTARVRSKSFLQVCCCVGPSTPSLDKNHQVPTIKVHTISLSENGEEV
Experiment: Antagonist activity at human adrenergic alpha1A receptor expressed in HEK293 cells assessed as inhibition of noradrenaline-induced receptor activation preincubated for 15 mins followed by noradrenaline addition and measured after 1 hr by TGFalpha shedding assay
Hi there, I'd appreciate the recorded Kb for every entry that follows.
Answers are plain numbers, in µM.

Below are worked cases with known answers.
CN1CCc2cc3c(c4c2[C@@H]1Cc1ccccc1-4)OCO3 :: 0.086
CN1CCc2cc3c(c4c2[C@H]1Cc1ccccc1-4)OCO3 :: 0.338
COc1cc2c3c(c1OC)-c1ccccc1C[C@@H]3N(C)CC2 :: 0.0671

Param item: COc1cc2c3c(c1OC)-c1ccccc1C[C@H]3N(C)CC2 ; param system: Alpha-1A adrenergic receptor (Homo sapiens) (UniProt P35348); output Kb: 0.0378

---

Target: Alpha-1B adrenergic receptor (Homo sapiens)
Experiment: Antagonist activity at human adrenergic alpha1B receptor expressed in HEK293 cells assessed as inhibition of noradrenaline-induced receptor activation preincubated for 15 mins followed by noradrenaline addition and measured after 1 hr by TGFalpha shedding assay
For each record, write down the corresponding pKb.
One number for each entry.

Fill in pKb for each of the 4 compounds listed.
1. CN1CCc2cc3c(c4c2[C@@H]1Cc1ccccc1-4)OCO3
2. COc1cc2c3c(c1OC)-c1ccccc1C[C@H]3N(C)CC2
3. COc1cc2c3c(c1OC)-c1ccccc1C[C@@H]3N(C)CC2
4. CN1CCc2cc3c(c4c2[C@H]1Cc1ccccc1-4)OCO3

1. 6.81
2. 7.22
3. 6.5
4. 6.57

---

Biological target: 5-hydroxytryptamine receptor 2A (Homo sapiens) (UniProt P28223)
Test: Antagonist activity at human 5-HT2A receptor expressed in HEK293 cells assessed as inhibition of serotonin-induced receptor activation preincubated for 15 mins followed by serotonin addition and measured after 1 hr by TGFalpha shedding assay
Assay type: functional, cell-based
Give measured Kb for each item. Keep answers brief.
Answers are plain numbers, in nM.

CN1CCc2cc3c(c4c2[C@H]1Cc1ccccc1-4)OCO3 :: 10.8
COc1cc2c3c(c1OC)-c1ccccc1C[C@H]3N(C)CC2 :: 65.3
COc1cc2c3c(c1OC)-c1ccccc1C[C@@H]3N(C)CC2 :: 84.3

Turning now to a further molecule:
The molecule CN1CCc2cc3c(c4c2[C@@H]1Cc1ccccc1-4)OCO3 , when measured on 5-hydroxytryptamine receptor 2A (Homo sapiens) (UniProt P28223), yielded Kb of 42.9
